# EXPERIMENTAL_TARGET: nSMase2 (Homo sapiens)
# Sequence (Q9NY59 1-655): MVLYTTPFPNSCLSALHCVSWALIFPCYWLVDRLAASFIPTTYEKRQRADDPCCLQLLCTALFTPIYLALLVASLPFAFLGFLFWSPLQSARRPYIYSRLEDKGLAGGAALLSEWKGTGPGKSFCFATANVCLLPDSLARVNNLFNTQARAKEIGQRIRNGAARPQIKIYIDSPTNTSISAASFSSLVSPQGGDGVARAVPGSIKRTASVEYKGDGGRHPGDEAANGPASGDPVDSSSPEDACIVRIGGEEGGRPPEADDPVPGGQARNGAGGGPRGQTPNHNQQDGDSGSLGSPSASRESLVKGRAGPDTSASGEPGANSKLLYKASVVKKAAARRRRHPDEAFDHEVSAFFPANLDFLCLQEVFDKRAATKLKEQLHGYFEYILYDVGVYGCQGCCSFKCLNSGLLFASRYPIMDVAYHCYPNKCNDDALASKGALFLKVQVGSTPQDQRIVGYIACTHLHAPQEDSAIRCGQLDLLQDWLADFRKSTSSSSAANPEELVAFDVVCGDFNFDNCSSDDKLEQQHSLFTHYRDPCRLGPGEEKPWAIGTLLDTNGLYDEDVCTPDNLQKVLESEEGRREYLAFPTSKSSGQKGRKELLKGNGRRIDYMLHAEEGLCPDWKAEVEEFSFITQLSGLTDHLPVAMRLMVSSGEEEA
# METHOD_NOTES: Inhibition of nSMase2 (IC50)
# Type: biochemical
# APPLIED_CONDITIONS: Table 1, Representative Inhibitors of nSMase2 of Formula (I)
Structures can show the parent of a compound that is named as a salt.
Readings of log10 of IC50 for the listed compounds
Heads up: the numbers are on a log10 scale; they represent IC50 in µM.

Examples with answers:
1) COc1cc(-c2nc(-c3cccs3)c(-c3cccs3)[nH]2)cc(OC)c1O [Compound 27] = -1.70
2) COc1cc(-c2nc3cccnc3[nH]2)cc(OC)c1O [Compound 43] = 0.60
3) COc1ccc(-c2nc(-c3cc(OC)c(O)c(OC)c3)[nH]c2-c2ccc(OC)cc2)cc1 [Compound 28] = -1.70
4) COc1cc(-c2nc(C)c(C)[nH]2)cc(OC)c1O [Compound 19, hydrochloride] = -0.30
5) Oc1c(OC2CCCC2)cc(-c2nc(-c3ccccc3)c(-c3cccs3)[nH]2)cc1OC1CCCC1 [Compound 30] = -1.00

Recall and state the measured log10 of IC50 for Oc1c(OCC(F)(F)F)cc(-c2nc(-c3ccccc3)c(-c3cccs3)[nH]2)cc1OCC(F)(F)F [Compound 36] .
-1.22

Recall and state the measured log10 of IC50 for CCCCc1nc(-c2cc(OC)c(O)c(OC)c2)[nH]c1CCCC [Compound 46] .
-0.70

Recall and state the measured log10 of IC50 for CCc1nc(-c2cc(OC)c(O)c(OC)c2)[nH]c1CC [Compound 33] .
-1.10

Recall and state the measured log10 of IC50 for COc1cc(-c2nc3c(C)ccc(C)c3[nH]2)cc(OC)c1O [Compound 44] .
-0.10

Recall and state the measured log10 of IC50 for COc1cc(-c2nc(-c3ccccc3)c(-c3cccs3)n2C)cc(OC)c1O [Compound 3455] .
1.78

Recall and state the measured log10 of IC50 for COc1cc(C2=NC3CCCCC3N2)cc(OC)c1O (stereo not drawn) [Compound 3546] .
1.85

Recall and state the measured log10 of IC50 for CC(C)Oc1cc(-c2nc(-c3ccccc3)c(-c3cccs3)[nH]2)cc(OC(C)C)c1O [Compound 22] .
-1.70

Recall and state the measured log10 of IC50 for COc1cc(-c2nc(-c3cccs3)c(C)[nH]2)cc(OC)c1O [Compound 41, hydrochloride] .
-2.00

Recall and state the measured log10 of IC50 for CCCCc1[nH]c(-c2cc(OC)c(O)c(OC)c2)nc1C [Compound 32] .
-1.22

Recall and state the measured log10 of IC50 for COc1cc(-c2ncc(-c3ccc(Br)cc3)[nH]2)cc(OC)c1O [Compound 26] .
-0.70
